# target or system: full length N-terminally FLAG-tagged PARP1 (Homo sapiens, UniProt P09874)
# Sequence (P09874 whole entry): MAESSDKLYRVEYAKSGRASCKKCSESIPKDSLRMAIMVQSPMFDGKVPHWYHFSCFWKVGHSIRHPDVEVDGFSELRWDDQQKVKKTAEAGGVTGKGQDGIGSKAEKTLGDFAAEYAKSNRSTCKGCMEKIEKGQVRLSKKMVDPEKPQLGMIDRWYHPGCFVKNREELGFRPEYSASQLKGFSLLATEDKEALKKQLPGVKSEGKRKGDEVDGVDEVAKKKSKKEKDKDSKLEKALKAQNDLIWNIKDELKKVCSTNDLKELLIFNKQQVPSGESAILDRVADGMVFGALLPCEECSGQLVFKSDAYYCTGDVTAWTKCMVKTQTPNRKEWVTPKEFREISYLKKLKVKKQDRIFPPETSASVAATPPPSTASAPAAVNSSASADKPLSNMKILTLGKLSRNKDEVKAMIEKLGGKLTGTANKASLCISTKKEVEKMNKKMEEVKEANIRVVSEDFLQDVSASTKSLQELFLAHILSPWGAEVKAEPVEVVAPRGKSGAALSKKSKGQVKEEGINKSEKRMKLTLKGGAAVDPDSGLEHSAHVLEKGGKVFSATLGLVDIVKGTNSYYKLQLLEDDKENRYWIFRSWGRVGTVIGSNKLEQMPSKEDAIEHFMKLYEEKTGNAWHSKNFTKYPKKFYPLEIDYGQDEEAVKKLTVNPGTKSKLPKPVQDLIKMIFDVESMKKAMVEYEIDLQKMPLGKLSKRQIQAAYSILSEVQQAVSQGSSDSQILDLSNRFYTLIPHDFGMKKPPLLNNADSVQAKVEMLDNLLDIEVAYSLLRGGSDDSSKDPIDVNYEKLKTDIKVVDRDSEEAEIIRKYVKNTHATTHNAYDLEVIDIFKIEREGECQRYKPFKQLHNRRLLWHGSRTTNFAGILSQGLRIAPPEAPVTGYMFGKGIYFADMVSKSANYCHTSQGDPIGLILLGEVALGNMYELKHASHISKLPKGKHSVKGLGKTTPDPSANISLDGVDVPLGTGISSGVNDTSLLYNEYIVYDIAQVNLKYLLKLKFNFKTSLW
# experimental details: PARP1 biochemical DELFIA assay (auto-PARylation)
# Set-up: recombinant full length human N-terminally FLAG-tagged PARP1
# particulars: binned IC50, biochemical auto-PARylation assay
pIC50: −log10 of the molar value.
experimental endpoint: pIC50

Here's what some known entries look like.
>  <molecule>
N#Cc1ccc(N2CCC(N3CCC(c4cc5ccc(F)cc5c(=O)[nH]4)C3)CC2)c(F)c1 (single isomer, unassigned) [Compound 385a]

>  <meas value>
> 8.00

$$$$
>  <molecule>
N#Cc1ccc(N2CCC(N3CCC(c4cc5cccc(F)c5c(=O)[nH]4)C3)CC2)cc1 (single isomer, unassigned) [Compound 314a]

>  <meas value>
> 8.00

$$$$

Let's switch to this molecule now.
Looking up O=C(NC1COC1)c1ccc(N2CCC(N3CCC(c4nc5ccccc5c(=O)[nH]4)C3)CC2)cn1 (racemic) , I see its pIC50 listed as 7.00 to 8.00
